I'd appreciate it if you could supply viscosity values for the items below.
conditions: 318.15 K; 101.3 kPa; Liquid; Concentric cylinders viscometry
Response body: numeric value in mPa·s, unit text excluded.

Inquiry: Return the recorded viscosity value; entry: CCOC(=O)OCC [diethyl carbonate]
Reply text: 0.584

Inquiry: Please report the measured viscosity for COC(=O)OC [dimethyl carbonate]
Reply text: 0.475

Inquiry: Let me know recorded viscosity for CCn1cc[n+](C)c1C.O=S(=O)([N-]S(=O)(=O)C(F)(F)F)C(F)(F)F , thanks.
Reply text: 33

Inquiry: Read the entry CCCCn1cc[n+](C)c1C.O=S(=O)([N-]S(=O)(=O)C(F)(F)F)C(F)(F)F and write its reported viscosity.
Reply text: 41.38
